As shown below, each of these compounds has a reported pKd value.
# TARGET_SYSTEM: human IgG
# ASSAY_OVERVIEW: Surface plasmon resonance (SPR) analysis of synthetic peptide binding to human IgG
# PROTOCOL_CONDITIONS: SPR, synthetic peptide binding to human IgG; read-out: Kd
Bridge positions count the residues as written; N and C are the ends. Peptide text beside a SMILES is read from it.
When answering, recall that pKd equals minus log10 of the concentration in mol/L, and write that number alone.

[[record]]
compound = "CC(C)C[C@@H]1NC(=O)[C@H](CC(N)=O)NC(=O)CNC(=O)[C@H](CC(C)C)NC(=O)[C@H]([C@@H](C)O)NC(=O)[C@H](Cc2ccc(O)cc2)NC(=O)[C@H]([C@@H](C)O)NC(=O)[C@@H](NC(=O)[C@@H](N)CC(=O)O)CSSC[C@@H](C(=O)N[C@H](C(N)=O)[C@@H](C)O)NC(=O)[C@H](Cc2c[nH]c3ccccc23)NC(=O)[C@H](C(C)C)NC1=O [GFc-C35-3/15 (N8L), DCTYTLGNLVWCT] (H-DCTYTLGNLVWCT-NH2; disulfide 2-12)"
reported_measurement = 3.59


Please provide the recorded pKd for CC(C)C[C@@H]1NC(=O)[C@H](CC(N)=O)NC(=O)CNC(=O)[C@H](CC(N)=O)NC(=O)[C@H]([C@@H](C)O)NC(=O)[C@H](Cc2ccc(O)cc2)NC(=O)[C@H](CO)NC(=O)[C@@H](NC(=O)[C@@H](N)CC(=O)O)CSSC[C@@H](C(=O)N[C@H](C(N)=O)[C@@H](C)O)NC(=O)[C@H](Cc2c[nH]c3ccccc23)NC(=O)[C@H](C(C)C)NC1=O [GFc-C35-3/15 (T5S), DCSYTNGNLVWCT] (H-DCSYTNGNLVWCT-NH2; disulfide 2-12) , tested on human IgG.
3.92

// fetch human IgG pKd for CC(C)C[C@@H]1NC(=O)[C@H](CC(N)=O)NC(=O)CNC(=O)[C@H](CC(N)=O)NC(=O)[C@H]([C@@H](C)O)NC(=O)[C@H](Cc2ccc(O)cc2)NC(=O)[C@H]([C@@H](C)O)NC(=O)[C@@H](NC(=O)[C@@H](N)CC(=O)O)CSSC[C@@H](C(=O)N[C@@H](CO)C(N)=O)NC(=O)[C@H](Cc2c[nH]c3ccccc23)NC(=O)[C@H](C(C)C)NC1=O [GFc-C35-3/15 (T15S), DCTYTNGNLVWCS] (H-DCTYTNGNLVWCS-NH2; disulfide 2-12)
4.47

Short answer please: pKd, human IgG, entry CC(C)C[C@@H]1NC(=O)[C@H](CC(N)=O)NC(=O)CNC(=O)[C@H](CCCNC(=N)N)NC(=O)[C@H]([C@@H](C)O)NC(=O)[C@H](Cc2ccc(O)cc2)NC(=O)[C@H]([C@@H](C)O)NC(=O)[C@@H](NC(=O)[C@@H](N)CC(=O)O)CSSC[C@@H](C(=O)N[C@H](C(N)=O)[C@@H](C)O)NC(=O)[C@H](Cc2c[nH]c3ccccc23)NC(=O)[C@H](C(C)C)NC1=O [GFc-C35-3/15 (N8R), DCTYTRGNLVWCT] (H-DCTYTRGNLVWCT-NH2; disulfide 2-12)
5.10

Value wanted: pKd (human IgG) of entry CC(C)C[C@@H]1NC(=O)[C@H](CCC(=O)O)NC(=O)CNC(=O)[C@H](CC(N)=O)NC(=O)[C@H]([C@@H](C)O)NC(=O)[C@H](Cc2ccc(O)cc2)NC(=O)[C@H]([C@@H](C)O)NC(=O)[C@@H](NC(=O)[C@@H](N)CC(=O)O)CSSC[C@@H](C(=O)N[C@H](C(N)=O)[C@@H](C)O)NC(=O)[C@H](Cc2c[nH]c3ccccc23)NC(=O)[C@H](C(C)C)NC1=O [GFc-C35-3/15 (N10E), DCTYTNGELVWCT] (H-DCTYTNGELVWCT-NH2; disulfide 2-12; N-terminus and C-terminus assumed)
4.59

###

# TARGET_SYSTEM: human IgG
# ASSAY_OVERVIEW: Surface plasmon resonance (SPR) analysis of synthetic peptide binding to human IgG
# PROTOCOL_CONDITIONS: SPR, synthetic peptide binding to human IgG; read-out: Kd
Bridge positions count the residues as written; N and C are the ends. Peptide text beside a SMILES is read from it.
ASSAY_METRIC: pKd
As a rule, pKd stands for the negative log10 of the concentration, concentration in M.

Which pKd is listed for CC(C)C[C@@H]1NC(=O)[C@H](CC(N)=O)NC(=O)CNC(=O)[C@H](CC(N)=O)NC(=O)[C@H]([C@@H](C)O)NC(=O)[C@H](Cc2ccc(O)cc2)NC(=O)[C@H]([C@@H](C)O)NC(=O)[C@@H](NC(=O)[C@H](CC(=O)O)NC(=O)[C@@H]2CCCN2)CSSC[C@@H](C(=O)N[C@H](C(=O)N[C@@H](Cc2ccccc2)C(N)=O)[C@@H](C)O)NC(=O)[C@H](Cc2c[nH]c3ccccc23)NC(=O)[C@H](C(C)C)NC1=O [GFc-C35-2/16, PDCTYTNGNLVWCTF] (H-PDCTYTNGNLVWCTF-NH2; disulfide 3-13) ?
4.60

###

# TARGET_SYSTEM: human IgG
# ASSAY_OVERVIEW: Surface plasmon resonance (SPR) analysis of synthetic peptide binding to human IgG
# PROTOCOL_CONDITIONS: SPR, synthetic peptide binding to human IgG; read-out: Kd
Bridge positions count the residues as written; N and C are the ends. Peptide text beside a SMILES is read from it.
ASSAY_METRIC: Kd (µM)
Write it as a number; the unit µM goes unstated.

State the recorded Kd for this entry: CC(C)C[C@@H]1NC(=O)[C@H](CC(N)=O)NC(=O)CNC(=O)[C@H](CC(N)=O)NC(=O)[C@H]([C@@H](C)O)NC(=O)[C@H](Cc2c[nH]c3ccccc23)NC(=O)[C@H]([C@@H](C)O)NC(=O)[C@@H](NC(=O)[C@@H](N)CC(=O)O)CSSC[C@@H](C(=O)N[C@H](C(N)=O)[C@@H](C)O)NC(=O)[C@H](Cc2c[nH]c3ccccc23)NC(=O)[C@H](C(C)C)NC1=O [GFc-C35-3/15 (Y6W), DCTWTNGNLVWCT] (H-DCTWTNGNLVWCT-NH2; disulfide 2-12)
50

These data points were gathered from patent US9365619B2.
